Source of measurements: paper PMC11820409

- Tested on: AhR (Mus musculus)
- Construct: cells that were stably transfected with a luciferase reporter gene; endogenous in cells; host or cells: H1L7.5c3 (mouse)
- Sequence (P30561 10-805 limits assumed): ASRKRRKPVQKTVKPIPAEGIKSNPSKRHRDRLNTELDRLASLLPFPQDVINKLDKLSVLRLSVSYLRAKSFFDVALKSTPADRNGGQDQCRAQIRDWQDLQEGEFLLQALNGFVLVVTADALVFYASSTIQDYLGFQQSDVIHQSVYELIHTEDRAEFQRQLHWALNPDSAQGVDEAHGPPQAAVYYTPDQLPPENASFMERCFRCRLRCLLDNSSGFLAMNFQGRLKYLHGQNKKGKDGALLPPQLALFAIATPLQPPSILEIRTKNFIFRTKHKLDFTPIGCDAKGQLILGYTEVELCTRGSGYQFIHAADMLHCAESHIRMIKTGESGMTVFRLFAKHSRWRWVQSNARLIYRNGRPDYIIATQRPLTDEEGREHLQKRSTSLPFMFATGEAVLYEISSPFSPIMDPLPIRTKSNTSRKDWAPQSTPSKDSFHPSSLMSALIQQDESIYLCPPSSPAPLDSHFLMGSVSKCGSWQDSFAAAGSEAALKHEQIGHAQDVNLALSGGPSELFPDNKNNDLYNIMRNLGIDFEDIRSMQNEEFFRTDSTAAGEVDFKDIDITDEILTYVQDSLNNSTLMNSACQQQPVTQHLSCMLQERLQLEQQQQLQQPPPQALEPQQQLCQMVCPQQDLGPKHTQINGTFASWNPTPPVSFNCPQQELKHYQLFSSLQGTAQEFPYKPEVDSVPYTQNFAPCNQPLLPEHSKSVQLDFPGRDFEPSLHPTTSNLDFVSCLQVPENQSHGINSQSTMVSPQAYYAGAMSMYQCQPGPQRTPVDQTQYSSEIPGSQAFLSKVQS
- Sequence (P11499 whole entry partner): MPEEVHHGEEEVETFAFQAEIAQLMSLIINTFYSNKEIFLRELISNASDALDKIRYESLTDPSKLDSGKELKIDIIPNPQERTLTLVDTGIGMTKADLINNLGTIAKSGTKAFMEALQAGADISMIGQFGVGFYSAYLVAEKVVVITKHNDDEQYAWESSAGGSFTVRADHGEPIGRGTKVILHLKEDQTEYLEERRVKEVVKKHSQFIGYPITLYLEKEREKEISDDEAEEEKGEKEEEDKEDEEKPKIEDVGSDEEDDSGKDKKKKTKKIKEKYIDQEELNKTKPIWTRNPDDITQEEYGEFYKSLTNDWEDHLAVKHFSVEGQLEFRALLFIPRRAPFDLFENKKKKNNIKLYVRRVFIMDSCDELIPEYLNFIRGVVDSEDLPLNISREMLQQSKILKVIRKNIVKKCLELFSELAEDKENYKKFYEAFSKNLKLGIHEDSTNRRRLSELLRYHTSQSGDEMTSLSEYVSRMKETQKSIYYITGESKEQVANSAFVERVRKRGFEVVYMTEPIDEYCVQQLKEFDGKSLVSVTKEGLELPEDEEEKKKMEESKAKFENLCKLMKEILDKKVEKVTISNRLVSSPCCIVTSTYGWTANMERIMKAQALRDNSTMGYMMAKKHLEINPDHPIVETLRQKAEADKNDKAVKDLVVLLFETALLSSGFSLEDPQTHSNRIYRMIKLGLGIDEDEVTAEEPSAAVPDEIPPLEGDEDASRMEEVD
- Sequence (O08915 whole entry partner): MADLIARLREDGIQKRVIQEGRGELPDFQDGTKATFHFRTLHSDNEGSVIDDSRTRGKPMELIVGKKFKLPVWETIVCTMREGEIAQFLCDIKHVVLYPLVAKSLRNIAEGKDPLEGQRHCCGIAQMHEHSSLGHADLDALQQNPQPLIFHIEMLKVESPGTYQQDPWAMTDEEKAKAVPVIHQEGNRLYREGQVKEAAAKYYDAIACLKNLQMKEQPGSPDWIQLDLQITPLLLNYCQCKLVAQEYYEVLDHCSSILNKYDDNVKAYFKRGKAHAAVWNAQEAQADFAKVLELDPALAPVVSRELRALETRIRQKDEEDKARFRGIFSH
- Procedure text: AhR induction, luciferase reporter gene (CALUX), mouse H1L7.5c3 cells
- Format: cell-based
Metric name: pEC50
pEC50 (log units): -log10 of the concentration in mol/L.

Record summary for Cc1c2[nH]c3ccccc3c2c(Br)c2[nH]c3ccccc3c12 [Compound 5, 6-Methyl-12-bromoindolo[3,2-b]carbazole] : reported pEC50 = 9.04

* * *

- Tested on: AhR (Mus musculus)
- Construct: cells that were stably transfected with a luciferase reporter gene; endogenous in cells; host or cells: H1L7.5c3 (mouse)
- Procedure text: AhR induction, luciferase reporter gene (CALUX), mouse H1L7.5c3 cells
- Format: cell-based
- Condition: mouse H1L7.5c3 cells, 6 h incubation; read-out: EC50, 6 h Mouse
Metric name: EC50 (pM)
Numbers only here, please. The scale is pM.

Clc1cc2c(cc1Cl)Oc1cc(Cl)c(Cl)cc1O2 [TCDD, reference compound] = 100
O=Cc1c2[nH]c3ccccc3c2cc2[nH]c3ccccc3c12 [Compound 1, 6-Formylindolo[3,2-b]carbazole] = 482
c1ccc2c(c1)[nH]c1cc3c(cc12)[nH]c1ccccc13 [Compound 2, indolo[3,2-b]carbazole] = 980

Record summary for OCc1c2[nH]c3ccccc3c2cc2[nH]c3ccccc3c12 [Compound 4, 6-Hydroxymethylindolo[3,2-b]carbazole] : reported EC50 = 922

Record summary for Cc1c2[nH]c3ccccc3c2cc2[nH]c3ccccc3c12 [Compound 3, 6-methylindolo[3,2-b]carbazole] : reported EC50 = 910

* * *

- Tested on: AhR (Homo sapiens)
- Construct: cells that were stably transfected with a luciferase reporter gene; endogenous in cells
- Sequence (P35869 11-848): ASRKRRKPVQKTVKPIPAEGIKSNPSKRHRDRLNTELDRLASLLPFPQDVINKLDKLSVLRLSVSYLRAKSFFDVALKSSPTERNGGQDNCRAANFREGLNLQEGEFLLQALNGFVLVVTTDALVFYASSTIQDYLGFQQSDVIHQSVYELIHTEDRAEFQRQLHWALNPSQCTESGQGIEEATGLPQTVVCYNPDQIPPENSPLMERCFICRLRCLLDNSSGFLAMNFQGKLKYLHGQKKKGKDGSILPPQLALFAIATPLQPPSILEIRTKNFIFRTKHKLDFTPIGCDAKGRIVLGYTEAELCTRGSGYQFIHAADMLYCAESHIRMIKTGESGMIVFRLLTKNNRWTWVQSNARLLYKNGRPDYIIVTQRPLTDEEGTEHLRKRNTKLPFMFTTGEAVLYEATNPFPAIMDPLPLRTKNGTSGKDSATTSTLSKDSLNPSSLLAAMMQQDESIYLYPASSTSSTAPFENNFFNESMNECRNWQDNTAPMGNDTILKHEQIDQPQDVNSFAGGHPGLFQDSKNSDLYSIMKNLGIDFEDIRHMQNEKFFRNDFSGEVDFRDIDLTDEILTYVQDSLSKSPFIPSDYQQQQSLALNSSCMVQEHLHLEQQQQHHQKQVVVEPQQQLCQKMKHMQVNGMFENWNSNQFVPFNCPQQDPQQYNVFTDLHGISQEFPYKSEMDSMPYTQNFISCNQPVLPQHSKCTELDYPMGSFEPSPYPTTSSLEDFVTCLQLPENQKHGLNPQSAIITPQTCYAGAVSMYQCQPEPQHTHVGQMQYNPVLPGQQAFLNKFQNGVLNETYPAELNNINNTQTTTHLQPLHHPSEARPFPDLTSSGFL
- Procedure text: AhR induction, luciferase reporter gene (CALUX), human HG2L7.5c1 cells
- Condition: 6 h incubation
Metric name: EC50 (nM)
Numbers only here, please. The scale is nM.

Answered cases to consult:
c1ccc2c(c1)[nH]c1cc3c(cc12)[nH]c1ccccc13 [Compound 2, indolo[3,2-b]carbazole] = 0.64
Cc1c2[nH]c3ccccc3c2c(Br)c2[nH]c3ccccc3c12 [Compound 5, 6-Methyl-12-bromoindolo[3,2-b]carbazole] = 0.328
Cc1c2[nH]c3ccccc3c2cc2[nH]c3ccccc3c12 [Compound 3, 6-methylindolo[3,2-b]carbazole] = 0.308

Record summary for OCc1c2[nH]c3ccccc3c2cc2[nH]c3ccccc3c12 [Compound 4, 6-Hydroxymethylindolo[3,2-b]carbazole] : reported EC50 = 4.52

Record summary for Clc1cc2c(cc1Cl)Oc1cc(Cl)c(Cl)cc1O2 [TCDD, reference compound] : reported EC50 = 0.57

* * *

- Tested on: AhR (Rattus norvegicus)
- Construct: cells that were stably transfected with a luciferase reporter gene; endogenous in cells
- Sequence (P41738 10-853): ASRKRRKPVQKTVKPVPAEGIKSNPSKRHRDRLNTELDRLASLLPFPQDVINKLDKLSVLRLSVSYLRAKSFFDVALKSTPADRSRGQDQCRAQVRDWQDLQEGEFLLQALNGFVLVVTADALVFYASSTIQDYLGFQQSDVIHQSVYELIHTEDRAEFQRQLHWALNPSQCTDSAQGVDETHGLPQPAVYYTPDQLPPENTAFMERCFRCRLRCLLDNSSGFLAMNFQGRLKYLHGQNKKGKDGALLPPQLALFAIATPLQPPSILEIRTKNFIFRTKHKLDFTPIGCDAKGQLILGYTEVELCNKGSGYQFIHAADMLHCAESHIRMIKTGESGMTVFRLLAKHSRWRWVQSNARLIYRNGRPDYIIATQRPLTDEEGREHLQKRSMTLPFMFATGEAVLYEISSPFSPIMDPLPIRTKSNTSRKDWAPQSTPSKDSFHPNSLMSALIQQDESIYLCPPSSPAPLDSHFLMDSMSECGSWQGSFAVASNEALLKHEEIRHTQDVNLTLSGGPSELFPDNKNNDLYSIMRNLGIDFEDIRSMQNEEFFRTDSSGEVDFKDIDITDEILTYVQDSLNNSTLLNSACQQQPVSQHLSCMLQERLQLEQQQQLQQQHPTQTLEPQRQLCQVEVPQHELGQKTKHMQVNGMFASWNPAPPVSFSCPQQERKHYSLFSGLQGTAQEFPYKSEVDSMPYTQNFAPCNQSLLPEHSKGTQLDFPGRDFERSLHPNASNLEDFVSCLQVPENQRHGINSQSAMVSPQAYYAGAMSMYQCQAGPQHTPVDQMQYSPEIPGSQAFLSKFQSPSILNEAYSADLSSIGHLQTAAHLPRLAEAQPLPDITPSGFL
- Procedure text: AhR induction, luciferase reporter gene (CALUX), rat H4L7.5c2 cells
- Condition: 6 h incubation
Metric name: pEC50
pEC50 (log units): -log10 of the concentration in mol/L.

Answered cases to consult:
O=Cc1c2[nH]c3ccccc3c2cc2[nH]c3ccccc3c12 [Compound 1, 6-Formylindolo[3,2-b]carbazole] = 10.10
Clc1cc2c(cc1Cl)Oc1cc(Cl)c(Cl)cc1O2 [TCDD, reference compound] = 10.23
OCc1c2[nH]c3ccccc3c2cc2[nH]c3ccccc3c12 [Compound 4, 6-Hydroxymethylindolo[3,2-b]carbazole] = 9.33
c1ccc2c(c1)[nH]c1cc3c(cc12)[nH]c1ccccc13 [Compound 2, indolo[3,2-b]carbazole] = 11.02
Cc1c2[nH]c3ccccc3c2c(Br)c2[nH]c3ccccc3c12 [Compound 5, 6-Methyl-12-bromoindolo[3,2-b]carbazole] = 10.22

Continue with the next compound.
Record summary for Cc1c2[nH]c3ccccc3c2cc2[nH]c3ccccc3c12 [Compound 3, 6-methylindolo[3,2-b]carbazole] : reported pEC50 = 10.23
